These entries and their values trace back to patent US20240246937A1.

# system_name: recombinant IL4I1 (Homo sapiens (Human))
# test_name: IL4I1 Enzymatic Assay (Amplex Red/HRP coupled fluorescence detection of H2O2)
# Assay type: biochemical
# reported_conditions: 240 min; recombinant IL4I1, four-hour pre-incubation with compound
measurement_type: EC50 (nM)

[P] O=C1C(=O)N(C23CC(F)(C2)C3)CCN1Cc1ccc(-c2cccnc2)nn1
[Q] O=C1C(=O)N(C2CCC2)CCN1Cc1ccc(-c2cc(Br)ccc2F)nn1
[R] O=C1C(=O)N([C@H]2C[C@H]3C[C@H]3C2)CCN1Cc1ccc(-c2ccccc2F)nn1 [Example 62]
Ordering: ascending EC50. Response format: the labels, sorted as the prompt asks.
R, P, Q

[P] O=c1c(=O)n(C2CCC2)ccn1Cc1cc(-c2ccccc2)no1
[Q] O=C1C(=O)N(C23CC(C2)C3)CCN1Cc1cn(-c2ccccc2)nn1
Out of P and Q , name the one with the higher EC50. When you have decided, please share the label of that item.
Q
(Q: 9 nM, P: 1 nM)

----------
# system_name: recombinant IL4I1 (Homo sapiens (Human))
# test_name: IL4I1 Enzymatic Assay (Amplex Red/HRP coupled fluorescence detection of H2O2)
# Assay type: biochemical
# reported_conditions: 240 min; recombinant IL4I1, four-hour pre-incubation with compound
# Text: Interleukin 4 inducible protein 1 (IL4I1) is an L-amino oxidase that catalyzes the oxidation of aromatic residues (Phe, Trp and Tyr): L-amino acid+H2O+O2→2-oxo acid+NH3+H2O2. […] In this assay, the hydrogen peroxide generated by IL4I1 is then detected through a coupled reaction with Amplex® Red (10-acetyl-3,7-dihydroxyphenoxazine) and horseradish peroxidase (HRP) to produce resorufin product that could be detected in the form of fluorescence signals. […]
measurement_type: EC50 (nM)

[A] O=c1c(=O)n(C2CCC2)ccn1Cc1ccc(-c2ccccc2F)nc1 [Example 72]
[B] O=C1C(=O)N(C2(CF)CC2)CCN1Cc1ccc(-c2ccccc2F)nn1 [Example 195]
[C] O=c1c(=O)n(C2(CF)CC2)ccn1Cc1cc(-c2ccccn2)on1 [Example 238]
[D] O=C1C(=O)N2CCCCC2CN1Cc1nnc(-c2ccccc2)s1 (single isomer, unassigned) [Example 180]
Highest to lowest EC50: rank the entries shown above. Response format: the labels, sorted as the prompt asks.
D, B, C, A
(D: 97 nM, B: 48 nM, C: 29 nM, A: 2 nM)

[a] O=C1C(=O)N(C2CCCC2)CCN1CCc1cc2ccccc2nn1 [Example 269]
[b] O=c1c(=O)n(C23CC(C2)C3)ccn1Cc1cc(-c2nccs2)on1 [Example 187]
Out of a and b , name the one with the higher EC50. When you have decided, please share the label of that item.
a

----------
# system_name: recombinant IL4I1 (Homo sapiens (Human), UniProt Q96RQ9)
# Sequence (Q96RQ9 22-567): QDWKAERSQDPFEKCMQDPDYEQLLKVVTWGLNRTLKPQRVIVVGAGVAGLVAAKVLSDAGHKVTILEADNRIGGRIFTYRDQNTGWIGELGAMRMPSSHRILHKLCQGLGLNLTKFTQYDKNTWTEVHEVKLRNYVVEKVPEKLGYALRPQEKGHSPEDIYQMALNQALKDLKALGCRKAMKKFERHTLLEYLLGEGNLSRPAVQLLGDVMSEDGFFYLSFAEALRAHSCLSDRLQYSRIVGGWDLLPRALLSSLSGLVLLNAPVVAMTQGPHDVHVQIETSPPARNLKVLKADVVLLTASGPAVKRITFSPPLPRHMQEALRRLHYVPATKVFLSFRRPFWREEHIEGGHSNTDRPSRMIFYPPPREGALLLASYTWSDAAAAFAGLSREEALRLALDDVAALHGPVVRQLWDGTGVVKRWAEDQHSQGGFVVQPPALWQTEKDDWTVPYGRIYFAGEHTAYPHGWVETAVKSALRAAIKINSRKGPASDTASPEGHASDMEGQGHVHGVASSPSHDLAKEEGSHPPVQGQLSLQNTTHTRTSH
# test_name: IL4I1 Enzymatic Assay (Amplex Red/HRP coupled fluorescence detection of H2O2)
# Assay type: biochemical
# reported_conditions: 240 min; recombinant IL4I1, four-hour pre-incubation with compound
measurement_type: EC50 (nM)

Known EC50 results, listed for orientation:
* O=C1C(=O)N(C23CC(F)(C2)C3)CCN1Cc1nnc(-c2ccccc2)s1 | 16
* O=C1C(=O)N(C2CCC2)CCN1Cc1ncc(-c2ccccc2)cc1F | 7
* N#CC1(n2ccn(Cc3cc(-c4ccccn4)on3)c(=O)c2=O)CC1 | 43
* O=c1c(=O)n(C2CCC2)ccn1Cc1ccc(-n2ccnc2)nn1 | 16
* O=c1c(=O)n(C2CCC2)ccn1Cc1nnc(-c2cccc(F)c2)s1 | 8

[P] O=C1C(=O)N(C2CCCC2)CCN1Cc1nnc(-c2nccs2)s1
[Q] O=c1c(=O)n(C2(CF)CC2)ccn1Cc1ccc(-n2nccn2)nc1
[R] O=c1c(=O)n(C2CCC2)ccn1Cc1nnc(-c2ccccc2)s1
[S] CC1(n2ccn(Cc3cc(-c4ccccc4)no3)c(=O)c2=O)CCC1
Rank entries according to their EC50, from the largest number down. Response format: the labels, sorted as the prompt asks.
Q, P, S, R
(Q: 73 nM, P: 25 nM, S: 10 nM, R: 5 nM)

[a] O=c1c(=O)n(C2(CF)CC2)ccn1Cc1ccc(-c2ccccc2F)nn1
[b] O=C1C(=O)N(C2CCC2)CCN1Cc1cnc(-c2ccccc2F)cn1
For the pair a and b , which member has the lower EC50 number? When you have decided, please share the label of that item.
b

[P] CC1(n2ccn(Cc3ccc(-n4cccn4)nc3)c(=O)c2=O)CC1
[Q] O=c1c(=O)n(C2CCCC2)ccn1Cc1cc(-c2ccccn2)no1
Out of P and Q , name the one with the higher EC50. When you have decided, please share the label of that item.
P
(P: 26 nM, Q: 6 nM)

[a] O=C1C(=O)N(C2CCC2)CCN1Cc1ccc(-c2cc(F)cc(F)c2)nn1
[b] O=C1C(=O)N(C2CCC2)CCN1Cc1nnc(-c2ccccn2)s1
[c] O=C1C(=O)N(C2CCC2)CCN1Cc1ncc(-c2ccccc2F)s1
[d] O=c1c(=O)n(C23CC(C2)C3)ccn1Cc1nnc(-c2ccccc2)s1
Rank entries according to their EC50, from the largest number down. Response format: the labels, sorted as the prompt asks.
b, a, c, d

[1] O=C1C(=O)N(C2CCC2)CCN1Cc1ccc(-c2ccccc2)nn1
[2] O=c1c(=O)n(C23CC(C2)C3)ccn1Cc1ccc(-n2nccn2)nc1
Out of 1 and 2 , name the one with the higher EC50. When you have decided, please share the label of that item.
2

----------
# system_name: recombinant IL4I1 (Homo sapiens (Human), UniProt Q96RQ9)
# test_name: IL4I1 Enzymatic Assay (Amplex Red/HRP coupled fluorescence detection of H2O2)
# Type: biochemical
# reported_conditions: 240 min; recombinant IL4I1, four-hour pre-incubation with compound
measurement_type: EC50 (nM)

Known EC50 results, listed for orientation:
- O=c1c(=O)n(C23CC(C2)C3)ccn1Cc1cc(-c2ccccc2)on1: 2
- N#CC1CC(N2CCN(Cc3nnc(-c4ccccc4)s3)C(=O)C2=O)C1 (stereo not drawn): 28
- O=c1c(=O)n(C2(CF)CC2)ccn1Cc1ccc(-c2cncs2)nn1: 43

[I] O=c1c(=O)n(C23CC(C2)C3)ccn1Cc1nnc(-c2ccccc2F)s1
[II] CC(CF)N1CCN(Cc2ncc(-c3ccccc3)cn2)C(=O)C1=O (stereo not drawn)
[III] O=C1C(=O)N(C2CCOC2)CCN1Cc1ncc(-c2ccccc2)cn1 (stereo not drawn)
[IV] O=C1C(=O)N(C2CCC2)CCN1Cc1ccc(-n2nccn2)nn1
[V] O=C1C(=O)N(C2CCC2)CCN1Cc1ncc(-c2ccccn2)s1
Please produce an ascending ranking of these molecules based on EC50. Response format: the labels, sorted as the prompt asks.
I, V, IV, II, III

----------
# system_name: recombinant IL4I1 (Homo sapiens (Human))
# test_name: IL4I1 Enzymatic Assay (Amplex Red/HRP coupled fluorescence detection of H2O2)
# Format: biochemical
# reported_conditions: 240 min; recombinant IL4I1, four-hour pre-incubation with compound
# From the text: Interleukin 4 inducible protein 1 (IL4I1) is an L-amino oxidase that catalyzes the oxidation of aromatic residues (Phe, Trp and Tyr): L-amino acid+H2O+O2→2-oxo acid+NH3+H2O2. […] In this assay, the hydrogen peroxide generated by IL4I1 is then detected through a coupled reaction with Amplex® Red (10-acetyl-3,7-dihydroxyphenoxazine) and horseradish peroxidase (HRP) to produce resorufin product that could be detected in the form of fluorescence signals. […]
measurement_type: EC50 (nM)

* O=C1C(=O)N(C2CCC2)CCN1Cc1cnc(-c2ccccc2)c(F)c1 [Example 123] | 5
* O=C1C(=O)N(C23CC(C2)C3)CCN1Cc1nnc(-c2ccccc2)s1 [Example 121] | 7
* O=c1c(=O)n([C@H]2C[C@H]3C[C@H]3C2)ccn1Cc1cc(-c2cccc(F)c2)on1 [Example 67] | 1
* O=C1C(=O)N(C2CCCC2)CCN1Cc1ccc(-n2nccn2)nc1 [Example 336] | 20
* O=C1C(=O)N(C2(C(F)(F)F)CCC2)CCN1Cc1nnc(-c2ccccc2)s1 [Example 298] | 32
* O=C1C(=O)N(C23CC(C2)C3)CCN1CC12CC(c3ccccc3)(C1)C2(F)F [Example 191] | 35

[a] N#CC1(n2ccn(Cc3ccc(-c4ccccn4)cn3)c(=O)c2=O)CC1 [Example 92]
[b] O=C1C(=O)N(C23CC(C2)C3)CCN1Cc1cnc(-c2ccccc2)nc1 [Example 110]
For the pair a and b , which member has the lower EC50 number? When you have decided, please share the label of that item.
b
(b: 27 nM, a: 155 nM)

----------
# system_name: recombinant IL4I1 (Homo sapiens (Human), UniProt Q96RQ9)
# test_name: IL4I1 Enzymatic Assay (Amplex Red/HRP coupled fluorescence detection of H2O2)
# Assay type: biochemical
# reported_conditions: 240 min; recombinant IL4I1, four-hour pre-incubation with compound
measurement_type: EC50 (nM)

• O=C1C(=O)N(C2CCCC2)CCN1Cc1ccc(N2CCCC2)nn1 [Example 314] = 43

[I] O=C1C(=O)N(C23CC(F)(C2)C3)CCN1Cc1ccc(-n2cccn2)nc1 [Example 237]
[II] O=C1C(=O)N(C23CC(F)(C2)C3)CCN1Cc1ccc(-c2ccccc2F)nn1 [Example 228]
[III] O=c1c(=O)n(C23CC(C2)C3)ccn1Cc1cc(-c2ccc(F)cc2)on1 [Example 419]
Rank entries according to their EC50, from the largest number down. Response format: the labels, sorted as the prompt asks.
I, II, III

[a] O=c1c(=O)n(C2(CF)CC2)ccn1Cc1ccc(-n2cccn2)nc1 [Example 231]
[b] O=c1c(=O)n(C23CC(F)(C2)C3)ccn1Cc1ccc(-n2nccn2)nc1 [Example 255]
For the pair a and b , which member has the lower EC50 number? When you have decided, please share the label of that item.
a
